- TEST_DESCRIPTION: Free fraction in brain homogenate (fb)
- Format: in vitro ADME
- CONDITIONS_USED: method ref. 18
fraction unbound for assorted molecules
Respond numerically, and do not add a unit to the figure.

>>> print(df.to_string())
                              line_notation   outcome_measure  readout_value
0  C[C@@H]1C[C@@H](F)CN1c1c(C#N)c2c(N)nccc2n1C  fraction unbound           0.13

Give me measured fraction unbound, please, for this molecule: "C[C@@H]1C[C@@H](F)CN1c1c(C#N)c2c(N)ncnc2n1C"
0.23

Give me measured fraction unbound, please, for this molecule: "C[C@@H]1CCCN1c1c(C#N)c2c(N)nc(Nc3cnn(C)c3)nc2n1C"
0.012
